- Test Details: Selectivity index, ratio of IC50 for African green monkey Vero cells to IC50 for amastigote stage of Trypanosoma cruzi IRHOD/CO/2008/SN3 infected in African green monkey Vero cells
- Assay type: toxicity, cell-based
- Conditions Used: read-out: Ratio IC50
So basically, if selectivity ratio comes in under 2 it's Criterion met, and if it's 2 or more it's Criterion not met.

Inquiry: A record lists CCCCNc1c(NCCCC(=O)O)c(=O)c1=O . Is its selectivity ratio below 2?
Reply text: Criterion met

Inquiry: A record lists CCCCCCCCCCCCCCCCNc1c(NCCN(C)C)c(=O)c1=O . Is its selectivity ratio below 2?
Reply text: Criterion not met

Inquiry: A record lists CCCCNc1c(NCCN(C)C)c(=O)c1=O . Is its selectivity ratio below 2?
Reply text: Criterion not met

Next:
Inquiry: A record lists CCCCNc1c(NCCCN(CCCC)CCCC)c(=O)c1=O . Is its selectivity ratio below 2?
Reply text: Criterion not met

Inquiry: A record lists CCCCNc1c(NCC[N+](C)(C)C)c(=O)c1=O . Is its selectivity ratio below 2?
Reply text: Criterion met

Inquiry: A record lists C[N+](C)(C)CCNc1c(NCc2ccccc2)c(=O)c1=O . Is its selectivity ratio below 2?
Reply text: Criterion met

Inquiry: A record lists CCOC(=O)c1ccc(Nc2c(O)c(=O)c2=O)cc1 . Is its selectivity ratio below 2?
Reply text: Criterion met

Inquiry: A record lists CN(C)c1ccc(Nc2c(O)c(=O)c2=O)cc1 . Is its selectivity ratio below 2?
Reply text: Criterion met
